# assay.setup: in n-propanol, 313.15 K
measured.parameter: solubility (mole fraction)

{"columns": ["smiles.text", "measured"],
 "data": [
  ["O=c1cnc(Br)c[nH]1", 0.0152]
]}

###

# assay.setup: in n-propanol, 323.15 K
measured.parameter: solubility (mole fraction)

{"columns": ["smiles.text", "measured"],
 "data": [
  ["O=c1cnc(Br)c[nH]1", 0.0213]
]}

###

# assay.setup: in DMF, 278.15 K
measured.parameter: solubility (mole fraction)

{"columns": ["smiles.text", "measured"],
 "data": [
  ["O=c1cnc(Br)c[nH]1", 0.00576]
]}

###

# assay.setup: in n-propanol, 283.15 K

{"columns": ["smiles.text", "solubility (mole fraction)"],
 "data": [
  ["O=c1cnc(Br)c[nH]1", 0.00472]
]}

###

# assay.setup: in acetonitrile, 293.15 K

{"columns": ["smiles.text", "solubility (mole fraction)"],
 "data": [
  ["O=c1cnc(Br)c[nH]1", 0.00766]
]}

###

# assay.setup: in n-propanol, 293.15 K
measured.parameter: solubility (mole fraction)

{"columns": ["smiles.text", "measured.parameter", "measured"],
 "data": [
  ["O=c1cnc(Br)c[nH]1", "solubility (mole fraction)", 0.0072]
]}

###

# assay.setup: in DMF, 303.15 K
measured.parameter: solubility (mole fraction)

{"columns": ["smiles.text", "measured"],
 "data": [
  ["O=c1cnc(Br)c[nH]1", 0.0181]
]}

###

# assay.setup: in DMF, 288.15 K

{"columns": ["smiles.text", "solubility (mole fraction)"],
 "data": [
  ["O=c1cnc(Br)c[nH]1", 0.00988]
]}

###

# assay.setup: in ethylene glycol, 283.15 K

{"columns": ["smiles.text", "solubility (mole fraction)"],
 "data": [
  ["O=c1cnc(Br)c[nH]1", 0.000203]
]}

###

# assay.setup: in ethanol, 323.15 K

{"columns": ["smiles.text", "solubility (mole fraction)"],
 "data": [
  ["O=c1cnc(Br)c[nH]1", 0.00525]
]}

###

# assay.setup: in ethylene glycol, 303.15 K

{"columns": ["smiles.text", "solubility (mole fraction)"],
 "data": [
  ["O=c1cnc(Br)c[nH]1", 0.00065]
]}

###

# assay.setup: in ethanol, 303.15 K
measured.parameter: solubility (mole fraction)

{"columns": ["smiles.text", "measured.parameter", "measured"],
 "data": [
  ["O=c1cnc(Br)c[nH]1", "solubility (mole fraction)", 0.00251]
]}

###

# assay.setup: in propylene glycol, 303.15 K

{"columns": ["smiles.text", "solubility (mole fraction)"],
 "data": [
  ["O=c1cnc(Br)c[nH]1", 0.000766]
]}

###

# assay.setup: in isopropanol, 278.15 K

{"columns": ["smiles.text", "solubility (mole fraction)"],
 "data": [
  ["O=c1cnc(Br)c[nH]1", 0.00258]
]}

###

# assay.setup: in ethylene glycol, 318.15 K

{"columns": ["smiles.text", "solubility (mole fraction)"],
 "data": [
  ["O=c1cnc(Br)c[nH]1", 0.00139]
]}

###

# assay.setup: in acetonitrile, 308.15 K

{"columns": ["smiles.text", "solubility (mole fraction)"],
 "data": [
  ["O=c1cnc(Br)c[nH]1", 0.0136]
]}
